# System: CYP1A2
# assay: in vitro
# conditions: human
result_type: fold induction

mol_smiles: CO[C@H]1/C=C/O[C@@]2(C)Oc3c(C)c(O)c4c(c3C2=O)C2=NC3(CCN(CC(C)C)CC3)NC2=C(NC(=O)/C(C)=C\C=C\[C@H](C)[C@H](O)[C@@H](C)[C@@H](O)[C@@H](C)[C@H](OC(C)=O)[C@@H]1C)C4=O
study_target: CYP1A2
obs_value: 2

---

# study_target: CYP 3A4 (Homo sapiens, UniProt P08684)
# Sequence (P08684 whole entry): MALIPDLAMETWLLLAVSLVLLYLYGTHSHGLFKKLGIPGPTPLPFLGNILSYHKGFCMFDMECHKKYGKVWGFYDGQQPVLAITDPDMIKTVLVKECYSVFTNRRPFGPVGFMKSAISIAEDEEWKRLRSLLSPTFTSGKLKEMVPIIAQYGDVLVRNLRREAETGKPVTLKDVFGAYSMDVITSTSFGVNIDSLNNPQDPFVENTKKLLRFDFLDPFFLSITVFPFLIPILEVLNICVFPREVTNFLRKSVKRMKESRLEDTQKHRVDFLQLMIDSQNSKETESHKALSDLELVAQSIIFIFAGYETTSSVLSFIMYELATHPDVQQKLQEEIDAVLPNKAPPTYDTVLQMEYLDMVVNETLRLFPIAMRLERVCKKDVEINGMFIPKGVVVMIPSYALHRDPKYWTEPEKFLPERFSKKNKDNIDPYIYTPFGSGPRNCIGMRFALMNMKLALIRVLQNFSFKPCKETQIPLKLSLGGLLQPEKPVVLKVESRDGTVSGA
# conditions: read-out: CYP inhibition IC50; CYP 3A4, substrate Testosterone; ND = Not Detected
pIC50: −log10 of the molar value.
result_type: pIC50

molecule: COC1C=COC2(C)Oc3c(C)c(O)c4c(=O)c(c5oc6cc(OCCN(C)C)ccc6nc-5c4c3C2=O)NC(=O)C(C)=CC=CC(C)C(O)C(C)C(O)C(C)C(OC(C)=O)C1C (stereo not shown)
obs_value: 5.25

---

# study_target: CYP 2D6 (Homo sapiens, UniProt P10635)
# Sequence (P10635 whole entry): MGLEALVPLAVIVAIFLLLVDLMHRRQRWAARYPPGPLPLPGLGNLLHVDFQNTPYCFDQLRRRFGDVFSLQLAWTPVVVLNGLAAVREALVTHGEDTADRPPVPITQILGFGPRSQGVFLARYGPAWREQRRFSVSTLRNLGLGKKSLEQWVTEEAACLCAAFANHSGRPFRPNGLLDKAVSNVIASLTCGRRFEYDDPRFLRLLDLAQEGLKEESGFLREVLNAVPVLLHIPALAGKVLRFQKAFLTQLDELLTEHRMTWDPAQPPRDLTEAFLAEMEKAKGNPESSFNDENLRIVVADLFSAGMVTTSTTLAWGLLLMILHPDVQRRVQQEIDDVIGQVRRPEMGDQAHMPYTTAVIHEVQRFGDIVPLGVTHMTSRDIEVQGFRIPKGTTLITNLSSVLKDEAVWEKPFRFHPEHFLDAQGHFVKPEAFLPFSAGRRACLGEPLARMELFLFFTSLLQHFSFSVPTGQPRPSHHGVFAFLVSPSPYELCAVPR
# assay: CYP inhibition
# conditions: read-out: CYP inhibition IC50; CYP 2D6, substrate Dextromethorphan; ND = Not Detected
pIC50: −log10 of the molar value.

compound: COC1C=COC2(C)Oc3c(C)c(O)c4c(=O)c(c5oc6cc(OCCN(C)C)ccc6nc-5c4c3C2=O)NC(=O)C(C)=CC=CC(C)C(O)C(C)C(O)C(C)C(OC(C)=O)C1C (stereo not shown)
study_target: CYP 2D6 (Homo sapiens, UniProt P10635)
pIC50: 4.93

---

# study_target: P-gp (MDR1) (Homo sapiens)
# Sequence (P08183 whole entry): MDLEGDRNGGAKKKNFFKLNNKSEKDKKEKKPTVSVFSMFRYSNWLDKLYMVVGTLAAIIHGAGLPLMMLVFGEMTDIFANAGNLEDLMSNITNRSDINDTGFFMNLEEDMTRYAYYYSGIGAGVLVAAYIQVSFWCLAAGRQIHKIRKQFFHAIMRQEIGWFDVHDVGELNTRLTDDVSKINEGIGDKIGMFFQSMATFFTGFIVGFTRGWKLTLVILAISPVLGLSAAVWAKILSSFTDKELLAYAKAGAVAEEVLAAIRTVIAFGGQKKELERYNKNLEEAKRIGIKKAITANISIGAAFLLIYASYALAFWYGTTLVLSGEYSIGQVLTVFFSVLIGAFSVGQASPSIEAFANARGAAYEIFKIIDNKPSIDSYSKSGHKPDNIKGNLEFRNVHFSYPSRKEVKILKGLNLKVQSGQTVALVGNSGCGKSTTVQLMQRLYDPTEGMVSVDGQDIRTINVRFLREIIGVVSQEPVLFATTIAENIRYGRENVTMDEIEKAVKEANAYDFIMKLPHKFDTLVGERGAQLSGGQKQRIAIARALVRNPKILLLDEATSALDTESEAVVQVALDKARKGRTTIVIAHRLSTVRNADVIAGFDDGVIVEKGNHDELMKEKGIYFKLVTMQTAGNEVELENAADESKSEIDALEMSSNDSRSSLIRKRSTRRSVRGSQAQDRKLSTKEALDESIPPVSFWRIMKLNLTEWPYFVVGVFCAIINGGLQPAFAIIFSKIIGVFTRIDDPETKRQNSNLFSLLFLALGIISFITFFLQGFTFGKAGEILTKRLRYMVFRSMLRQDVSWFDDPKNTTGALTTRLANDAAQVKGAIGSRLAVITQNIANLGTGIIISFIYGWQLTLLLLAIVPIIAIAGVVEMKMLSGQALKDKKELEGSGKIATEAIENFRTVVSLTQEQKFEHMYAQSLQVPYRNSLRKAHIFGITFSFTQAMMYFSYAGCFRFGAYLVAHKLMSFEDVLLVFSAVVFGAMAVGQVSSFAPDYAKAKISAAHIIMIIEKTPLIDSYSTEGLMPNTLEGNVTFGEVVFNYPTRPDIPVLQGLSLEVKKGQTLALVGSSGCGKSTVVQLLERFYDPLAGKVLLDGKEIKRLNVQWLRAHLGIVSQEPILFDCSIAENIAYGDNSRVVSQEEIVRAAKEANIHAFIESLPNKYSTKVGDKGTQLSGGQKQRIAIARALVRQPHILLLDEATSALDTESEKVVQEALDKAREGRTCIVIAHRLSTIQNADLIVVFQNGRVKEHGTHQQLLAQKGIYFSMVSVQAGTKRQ
# assay: in vitro
# conditions: dog, MDCK-MDR1

molecule: CO[C@H]1/C=C/O[C@@]2(C)Oc3c(C)c(O)c4c(c3C2=O)C2=NC3(CCN(CC(C)C)CC3)NC2=C(NC(=O)/C(C)=C\C=C\[C@H](C)[C@H](O)[C@@H](C)[C@@H](O)[C@@H](C)[C@H](OC(C)=O)[C@@H]1C)C4=O [Rifabutin]
efflux ratio: 4.7

---

# assay: in vitro
# conditions: SD, rat, s9
result_type: remaining at 2 h (%)

mol_smiles: CO[C@H]1/C=C/O[C@@]2(C)Oc3c(C)c(O)c4c(c3C2=O)C2=NC3(CCN(CC(C)C)CC3)NC2=C(NC(=O)/C(C)=C\C=C\[C@H](C)[C@H](O)[C@@H](C)[C@@H](O)[C@@H](C)[C@H](OC(C)=O)[C@@H]1C)C4=O
result_type: remaining at 2 h
unit_abbrev: %
obs_value: 89

---

# assay: in vitro
# conditions: SD, rat, S9 microsomes

mol_smiles: CO[C@H]1/C=C/O[C@@]2(C)Oc3c(C)c(O)c4c(O)c(c(/C=N/N5CCN(C)CC5)c(O)c4c3C2=O)NC(=O)/C(C)=C\C=C\[C@H](C)[C@H](O)[C@@H](C)[C@@H](O)[C@@H](C)[C@H](OC(C)=O)[C@@H]1C
CLint scaled: < 23.4 mL/min/kg

---

# assay: in vitro
# conditions: CD-1, mouse, s9
result_type: remaining at 2 h

compound: CO[C@H]1/C=C/O[C@@]2(C)Oc3c(C)c(O)c4c(c3C2=O)C2=NC3(CCN(CC(C)C)CC3)NC2=C(NC(=O)/C(C)=C\C=C\[C@H](C)[C@H](O)[C@@H](C)[C@@H](O)[C@@H](C)[C@H](OC(C)=O)[C@@H]1C)C4=O [Rifabutin]
result_type: remaining at 2 h
obs_value: 4.6%

meta.source: paper PMC10766536
